target: aldose reductase (Bos taurus, UniProt P16116); construct: preparation of the enzyme from bovine lens; from tissue; host or cells: bovine lens; test: in vitro aldose reductase inhibition (modified Hayman and Kinoshita; enzyme from bovine lens); type: biochemical; conditions: read-out: % Inhibition IN VITRO
RESULT_TYPE: inhibition at 0.04 µM (%)
Quick reminder: number only, in %, skip the unit.

O=C1C[C@@]2(C(=O)N1)C(=O)N(Cc1ccc(Br)cc1F)C(=O)c1ccc(F)cc12 = 93
CN1C(=O)c2ccccc2C2(CC(=O)NC2=O)C1=O (stereo not shown) = 38
O=C1C[C@]2(C(=O)N1)C(=O)N(Cc1ccc(Br)cc1F)C(=O)c1ccc(F)cc12 = 29

Dear colleague, I am looking for the recorded inhibition at 0.04 µM of the following compound: O=C1CC2(C(=O)N1)C(=O)N(Cc1ccc(Br)cc1F)C(=O)c1ccc(F)cc12 (stereo not shown) 38

Source of measurements: patent US4927831A
